What IC50 was measured for each of the following?
Target: CyclinE1/CDK2 (Homo sapiens, UniProt P24864)
Construct: purchased Eurofins, discovery 14-475
Assay: Fluorescence Polarization (FP) competitive binding assay, Cyclin E1/Cdk2;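 also: readings taken after two-hour equilibration at room temperature in HEPES buffer with NaCl, DTT, NP-40 and BSA, IC50 fitted from eight-concentration serial dilution series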
Conditions: 10 nM Cyclin E1/Cdk2, 2 nM FAM probe; average of 2-3 independent experiments; read-out: Cyclin E FP IC50
*1 amine or outer side, *2 acyl side, *3 side chain or, on linkers, in order; H or OH if unused. Where a SMILES comes first, the peptide text is derived from it. Bridges are numbered along the chain shown (N, C = ends). [ ]: non-standard residue; d: D form. The star is where a group is joined. X122 = CN([C@@H](Cc1cc(Cl)ccc1C1=CCN(C(=O)C(C)(C)C)CC1)C(=O)[*:2])[*:1]; X69 = CCOC(=O)N1CC=C(c2ccc(Cl)cc2C[C@@H](C(=O)[*:2])N(C)[*:1])CC1; X84 = CC(=O)N1CCC(c2ccc(Cl)cc2C[C@@H](C(=O)[*:2])N(C)[*:1])CC1; NMehhhLys(Me) = CN([C@@H](CCCCCCCN(C)[*:3])C(=O)[*:2])[*:1]; cBuCO(3,3-F2-1-CF3) = O=C(C1(C(F)(F)F)CC(F)(F)C1)*; Pro(trans-4-F) = O=C(O)[C@@H]1C[C@@H](F)CN1; Gly(cPr) = N[C@H](C(=O)O)C1CC1
Answers are plain numbers, in nM.

Compound	IC50, nM
CCOC(=O)N1CC=C(c2ccc(Cl)cc2C[C@H]2C(=O)N(C)CCCCCCC[C@H](N(C)C(=O)[C@@H](NC(=O)[C@@H]3C[C@@H](F)CN3C(=O)C3(C(F)(F)F)CC(F)(F)C3)C3CC3)C(=O)N[C@@H](CC(C)C)C(=O)N2C)CC1 [Example 145] ({cBuCO(3,3-F2-1-CF3)}-[Pro(trans-4-F)][Gly(cPr)][NMehhhLys(Me)]L[X69]; lactam 3-C)	1300
CC(=O)N1CCC(c2ccc(Cl)cc2C[C@H]2C(=O)N(C)CCCCCCC[C@H](N(C)C(=O)[C@@H](NC(=O)[C@@H]3C[C@@H](F)CN3C(=O)C3(C(F)(F)F)CC(F)(F)C3)C3CC3)C(=O)N[C@@H](CC(C)C)C(=O)N2C)CC1 [Example 52] ({cBuCO(3,3-F2-1-CF3)}-[Pro(trans-4-F)][Gly(cPr)][NMehhhLys(Me)]L[X84]; lactam 3-C)	1130

Input line: # get_value(readout='IC50', item= CC(C)C[C@@H]1NC(=O)[C@@H](N(C)C(=O)[C@@H](NC(=O)[C@@H]2C[C@@H](F)CN2C(=O)C2(C(F)(F)F)CC(F)(F)C2)C2CC2)CCCCCCCN(C)C(=O)[C@H](Cc2cc(Cl)ccc2C2=CCN(C(=O)C(C)(C)C)CC2)N(C)C1=O [Example 144] ({cBuCO(3,3-F2-1-CF3)}-[Pro(trans-4-F)][Gly(cPr)][NMehhhLys(Me)]L[X122]; lactam 3-C) )
Output line: 840

###

Target: CyclinA2/CDK2 (Homo sapiens)
Construct: purchased CRELUX Protein Services
Assay: Fluorescence Polarization (FP) competitive binding assay, Cyclin A2/Cdk2
Settings: 8 nM Cyclin A2/Cdk2, 2 nM FAM probe; average of 2-3 independent experiments; read-out: Cyclin A FP IC50
*1 amine or outer side, *2 acyl side, *3 side chain or, on linkers, in order; H or OH if unused. Where a SMILES comes first, the peptide text is derived from it. Bridges are numbered along the chain shown (N, C = ends). [ ]: non-standard residue; d: D form. The star is where a group is joined. X124 = CC(C)C(=O)N1[C@@H]2CC[C@H]1C=C(c1ccc(F)cc1C[C@@H](C(=O)[*:2])N(C)[*:1])C2; NMePhe(2-(4-MorPh),5-Cl) = CN[C@@H](Cc1cc(Cl)ccc1-c1ccc(N2CCOCC2)cc1)C(=O)O; X97 = CN([C@@H](Cc1cc(Cl)ccc1-c1ccn2ncnc2c1)C(=O)[*:2])[*:1]; NMehhhLys(Me) = CN([C@@H](CCCCCCCN(C)[*:3])C(=O)[*:2])[*:1]; X204 = CN([C@@H](Cc1cc(F)ccc1-c1ccnnc1)C(=O)[*:2])[*:1]; NMe(hhhLys) = CN([C@@H](CCCCCCCN[*:3])C(=O)[*:2])[*:1]; cBuCO(3,3-F2-1-CF3) = O=C(C1(C(F)(F)F)CC(F)(F)C1)*; Pro(trans-4-F) = O=C(O)[C@@H]1C[C@@H](F)CN1; Pivaloyl(3,3,3-F3) = CC(C)(C(=O)*)C(F)(F)F; Gly(cPr) = N[C@H](C(=O)O)C1CC1
Assignment: determine reported pIC50 for the given compounds.
Numbers only, as −log10 of the molar value.

Sample records with pIC50:
Compound	Test system	pIC50
CC(C)C[C@@H]1NC(=O)[C@@H](N(C)C(=O)[C@@H](NC(=O)[C@@H]2C[C@@H](F)CN2C(=O)C2(C(F)(F)F)CC(F)(F)C2)C2CC2)CCCCCCCN(C)C(=O)[C@H](Cc2cc(Cl)ccc2-c2ccn3ncnc3c2)N(C)C1=O [Example 179] ({cBuCO(3,3-F2-1-CF3)}-[Pro(trans-4-F)][Gly(cPr)][NMehhhLys(Me)]L[X97]; lactam 3-C)	CyclinA2/CDK2 (Homo sapiens)	7.52
CC(C)C[C@@H]1NC(=O)[C@@H](N(C)C(=O)[C@@H](NC(=O)[C@@H]2C[C@@H](F)CN2C(=O)C2(C(F)(F)F)CC(F)(F)C2)C2CC2)CCCCCCCN(C)C(=O)[C@H](Cc2cc(F)ccc2C2=C[C@@H]3CC[C@H](C2)N3C(=O)C(C)C)N(C)C1=O [Example 317] ({cBuCO(3,3-F2-1-CF3)}-[Pro(trans-4-F)][Gly(cPr)][NMehhhLys(Me)]L[X124]; lactam 3-C)	CyclinA2/CDK2 (Homo sapiens)	7.52
CC(C)C[C@@H]1NC(=O)[C@@H](N(C)C(=O)[C@@H](NC(=O)[C@@H]2C[C@@H](F)CN2C(=O)C2(C(F)(F)F)CC(F)(F)C2)C2CC2)CC=CCCCCNC(=O)[C@H](Cc2cc(Cl)ccc2-c2cccc(Cl)c2)N(C)C1=O	CyclinA2/CDK2 (Homo sapiens)	6.37

Below is a list of compounds. For each, state its recorded pIC50.
1. CC(C)C[C@@H]1NC(=O)[C@@H](N(C)C(=O)[C@@H](NC(=O)[C@@H]2C[C@@H](F)CN2C(=O)C2(C(F)(F)F)CC(F)(F)C2)C2CC2)CCCCCCCNC(=O)[C@H](Cc2cc(F)ccc2-c2ccnnc2)N(C)C1=O [Example 290] ({cBuCO(3,3-F2-1-CF3)}-[Pro(trans-4-F)][Gly(cPr)][NMe(hhhLys)]L[X204]; lactam 3-C)
2. COCn1cc(-c2ccc(Cl)cc2C[C@H]2C(=O)N(C)CCCCC=CC[C@H](N(C)C(=O)[C@@H](NC(=O)[C@@H]3C[C@@H](F)CN3C(=O)C3(C(F)(F)F)CC(F)(F)C3)C3CC3)C(=O)N[C@@H](CC(C)C)C(=O)N2C)cn1
3. CC(C)C[C@@H]1NC(=O)[C@@H](N(C)C(=O)[C@@H](NC(=O)[C@@H]2C[C@@H](F)CN2C(=O)C(C)(C)C(F)(F)F)C2CC2)CCCCCCCN(C)C(=O)[C@H](Cc2cc(Cl)ccc2-c2ccc(N3CCOCC3)cc2)N(C)C1=O [Example 335] ({Pivaloyl(3,3,3-F3)}-[Pro(trans-4-F)][Gly(cPr)][NMehhhLys(Me)]L[NMePhe(2-(4-MorPh),5-Cl)]; lactam 3-C)

Output line:
[6.92, 7.30, 7.70]

###

Target: CyclinA2/CDK2 (Homo sapiens, UniProt P20248)
Construct: purchased CRELUX Protein Services
Test: Fluorescence Polarization (FP) competitive binding assay, Cyclin A2/Cdk2;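 also: plates equilibrated two hours at room temperature before polarization reading, IC50 fitted from eight-concentration compound titration curves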
Conditions: 8 nM Cyclin A2/Cdk2, 2 nM FAM probe; average of 2-3 independent experiments; read-out: Cyclin A FP IC50
*1 amine or outer side, *2 acyl side, *3 side chain or, on linkers, in order; H or OH if unused. Where a SMILES comes first, the peptide text is derived from it. Bridges are numbered along the chain shown (N, C = ends). [ ]: non-standard residue; d: D form. The star is where a group is joined. NMePhe(2-(4-MorPh),5-Cl) = CN[C@@H](Cc1cc(Cl)ccc1-c1ccc(N2CCOCC2)cc1)C(=O)O; NMePhe(5-Cl,2-O(2-Pym)) = CN[C@@H](Cc1cc(Cl)ccc1Oc1ncccn1)C(=O)O; X49 = CN1CCc2ccc(-c3ccc(Cl)cc3C[C@@H](C(=O)[*:2])N(C)[*:1])cc2C1; X197 = CN([C@@H](Cc1cc(Cl)ccc1-c1ccc(=O)[nH]c1)C(=O)[*:2])[*:1]; X79 = CC(C)n1cc(-c2ccc(Cl)cc2C[C@@H](C(=O)[*:2])N(C)[*:1])cn1; NMehhhLys(Me) = CN([C@@H](CCCCCCCN(C)[*:3])C(=O)[*:2])[*:1]; X22 = CN([C@@H](Cc1cc(Cl)ccc1-c1cnn(C)c1)C(=O)[*:2])[*:1]; X204 = CN([C@@H](Cc1cc(F)ccc1-c1ccnnc1)C(=O)[*:2])[*:1]; cBuCO(3,3-F2-1-CF3) = O=C(C1(C(F)(F)F)CC(F)(F)C1)*; Pro(trans-4-F) = O=C(O)[C@@H]1C[C@@H](F)CN1; Gly(cPr) = N[C@H](C(=O)O)C1CC1; X65 = CC1(C(=O)*)CC(F)(F)C1
Metric: IC50 (nM)
Give bare numbers, in nM.

Consider the worked cases shown below.
Compound	Test system	IC50 [nM]
CC(C)C[C@@H]1NC(=O)[C@@H](N(C)C(=O)[C@@H](NC(=O)[C@@H]2C[C@@H](F)CN2C(=O)C2(C(F)(F)F)CC(F)(F)C2)C2CC2)CCCCCCCN(C)C(=O)[C@H](Cc2cc(Cl)ccc2-c2cnn(C(C)C)c2)N(C)C1=O [Example 111] ({cBuCO(3,3-F2-1-CF3)}-[Pro(trans-4-F)][Gly(cPr)][NMehhhLys(Me)]L[X79]; lactam 3-C)	CyclinA2/CDK2 (Homo sapiens, UniProt P20248)	20
CC(C)C[C@@H]1NC(=O)[C@@H](N(C)C(=O)[C@@H](NC(=O)[C@@H]2C[C@@H](F)CN2C(=O)C2(C(F)(F)F)CC(F)(F)C2)C2CC2)CC=CCCCCNC(=O)[C@H](Cc2cc(F)cnc2OC2CC2)N(C)C1=O [Example 125]	CyclinA2/CDK2 (Homo sapiens, UniProt P20248)	1010
CC(C)C[C@@H]1NC(=O)[C@@H](N(C)C(=O)[C@@H](NC(=O)[C@@H]2C[C@@H](F)CN2C(=O)C2(C(F)(F)F)CC(F)(F)C2)C2CC2)CCCCCCCN(C)C(=O)[C@H](Cc2cc(Cl)ccc2-c2ccc3c(c2)CN(C)CC3)N(C)C1=O [Example 406] ({cBuCO(3,3-F2-1-CF3)}-[Pro(trans-4-F)][Gly(cPr)][NMehhhLys(Me)]L[X49]; lactam 3-C)	CyclinA2/CDK2 (Homo sapiens, UniProt P20248)	20
CC(C)C[C@@H]1NC(=O)[C@@H](N(C)C(=O)[C@@H](NC(=O)[C@@H]2C[C@@H](F)CN2C(=O)C2(C(F)(F)F)CC(F)(F)C2)C2CC2)CC=CCCCCNC(=O)[C@H](Cc2cc(Cl)ccc2-c2cnn(C3CC3)c2)N(C)C1=O [Example 189]	CyclinA2/CDK2 (Homo sapiens, UniProt P20248)	50
CC(C)C[C@@H]1NC(=O)[C@@H](N(C)C(=O)[C@@H](NC(=O)[C@@H]2C[C@@H](F)CN2C(=O)C2(C(F)(F)F)CC(F)(F)C2)C2CC2)CC=CCCCCNC(=O)[C@H](Cc2cc(Cl)ccc2C2=CCN(C)CC2)N(C)C1=O (single isomer, unassigned) [Example 56-P1]	CyclinA2/CDK2 (Homo sapiens, UniProt P20248)	860
CC(C)C[C@@H]1NC(=O)[C@@H](N(C)C(=O)[C@@H](NC(=O)[C@@H]2C[C@@H](F)CN2C(=O)C2(C(F)(F)F)CC(F)(F)C2)C2CC2)CCCCCCCN(C)C(=O)[C@H](Cc2cc(F)ccc2-c2ccnnc2)N(C)C1=O [Example 279] ({cBuCO(3,3-F2-1-CF3)}-[Pro(trans-4-F)][Gly(cPr)][NMehhhLys(Me)]L[X204]; lactam 3-C)	CyclinA2/CDK2 (Homo sapiens, UniProt P20248)	100
CC(C)C[C@@H]1NC(=O)[C@@H](N(C)C(=O)[C@@H](NC(=O)[C@@H]2C[C@@H](F)CN2C(=O)C2(C(F)(F)F)CC(F)(F)C2)C2CC2)CCCCCCCN(C)C(=O)[C@H](Cc2cc(Cl)ccc2Oc2ncccn2)N(C)C1=O [Example 155] ({cBuCO(3,3-F2-1-CF3)}-[Pro(trans-4-F)][Gly(cPr)][NMehhhLys(Me)]L[NMePhe(5-Cl,2-O(2-Pym))]; lactam 3-C)	CyclinA2/CDK2 (Homo sapiens, UniProt P20248)	100
CC(C)C[C@@H]1NC(=O)[C@@H](N(C)C(=O)[C@@H](NC(=O)[C@@H]2CCCN2C(=O)C2(C(F)(F)F)CC(F)(F)C2)C2CC2)CCCCCCCN(C)C(=O)[C@H](Cc2cc(Cl)ccc2-c2cnn(C)c2)N(C)C1=O [Example 77] ({cBuCO(3,3-F2-1-CF3)}-P[Gly(cPr)][NMehhhLys(Me)]L[X22]; lactam 3-C)	CyclinA2/CDK2 (Homo sapiens, UniProt P20248)	20
CC(C)C[C@@H]1NC(=O)[C@@H](N(C)C(=O)[C@@H](NC(=O)[C@@H]2C[C@@H](F)CN2C(=O)C2(C(F)(F)F)CCC2)C2CC2)CC=CCCCCNC(=O)[C@H](Cc2cc(Cl)cnc2OC2CC2)N(C)C1=O (single isomer, unassigned) [Example 107-P2]	CyclinA2/CDK2 (Homo sapiens, UniProt P20248)	110
CC(C)C[C@@H]1NC(=O)[C@@H](N(C)C(=O)[C@@H](NC(=O)[C@@H]2C[C@@H](F)CN2C(=O)C2(C)CC(F)(F)C2)C2CC2)CCCCCCCN(C)C(=O)[C@H](Cc2cc(Cl)ccc2-c2ccc(N3CCOCC3)cc2)N(C)C1=O [Example 365] (X65-[Pro(trans-4-F)][Gly(cPr)][NMehhhLys(Me)]L[NMePhe(2-(4-MorPh),5-Cl)]; lactam 3-C)	CyclinA2/CDK2 (Homo sapiens, UniProt P20248)	20

Now, please, on to the next compound.
Input line: Give the measured IC50 of CC(C)C[C@@H]1NC(=O)[C@@H](N(C)C(=O)[C@@H](NC(=O)[C@@H]2C[C@@H](F)CN2C(=O)C2(C(F)(F)F)CC(F)(F)C2)C2CC2)CCCCCCCN(C)C(=O)[C@H](Cc2cc(Cl)ccc2-c2ccc(=O)[nH]c2)N(C)C1=O [Example 180] ({cBuCO(3,3-F2-1-CF3)}-[Pro(trans-4-F)][Gly(cPr)][NMehhhLys(Me)]L[X197]; lactam 3-C) .
Output line: 30
